meta.source: patent US20260092115A1

Target: T1, human CTLA4 (soluble analyte of the Biacore assays of Examples 3-3, 4 and 5) (human, UniProt P16410 36-161)
T1 construct: also called hCTLA4
T1 sequence: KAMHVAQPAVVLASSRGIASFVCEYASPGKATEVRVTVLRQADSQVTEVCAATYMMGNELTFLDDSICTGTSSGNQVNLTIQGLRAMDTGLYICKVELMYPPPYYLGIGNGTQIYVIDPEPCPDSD
Test: SPR 37C, Ab on Protein G, 1000 nM CTLA4, ATP 10 uM; ATP 10 uM; binding amount at 1000 nM CTLA4
Kindly state Binding to Human CTLA4 (amount per unit antibody) for each of the entries shown.
Hey, just send me the number, nothing else.

Request: Would you kindly share the measured Binding to Human CTLA4 (amount per unit antibody) for 04H1077-G1m/04L1067-lam1 (antibody, human IgG1, lambda, V domains shown) VH: EVQLVESGGDLVKPGGGLRLSCAASGFTFSSRTMNWVRQAPGKGLEWVSSISTRSGYIYYAESVKGRFTISRDNAKNSLYLQMNSLRAEDTAVYYCARYGKREDMLWVFDYWGQGTLVTVSS VL: QSALTQPPSASGSPGQTVTISCDGPSTGVGDYNYVHWYQQHPGKAPKLMIYFTSKKPSGVPDRFSGSKSGNTASLTVSGLQAEDEADYFCSTYAAPLGPMFGGGTKLTVLG ?
Result: 0.131

Request: Let us now turn to 04H1077-G1m/04L1034-lam1 (antibody, human IgG1, lambda, V domains shown) VH: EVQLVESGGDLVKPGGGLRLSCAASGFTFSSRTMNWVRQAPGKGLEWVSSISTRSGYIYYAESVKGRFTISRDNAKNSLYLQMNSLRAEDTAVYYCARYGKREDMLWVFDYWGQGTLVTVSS VL: QSALTQPPSASGSPGQTVTISCDGPSTDVGDYNWVSWYQQHPGKAPKLMIYFTSKKPSGVPDRFSGSKSGNTASLTVSGLQAEDEADYFCSTYAAPLGPMFGGGTKLTVLG
Result: 0.041

Request: Let us now turn to 04H1077-G1m/04L1041-lam1 (antibody, human IgG1, lambda, V domains shown) VH: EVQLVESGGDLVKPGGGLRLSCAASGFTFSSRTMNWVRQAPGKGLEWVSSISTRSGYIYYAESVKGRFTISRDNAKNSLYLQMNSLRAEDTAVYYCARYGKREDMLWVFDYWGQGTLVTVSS VL: QSALTQPPSASGSPGQTVTISCDGPSTDVGDYNYVHWYQQHPGKAPKLMIYFTSKKPSGVPDRFSGSKSGNTASLTVSGLQAEDEADYFCSTYAAPLGPMFGGGTKLTVLG
Result: 0.094

Request: Let us now turn to 04H1077-G1m/04L1086-lam1 (antibody, human IgG1, lambda, V domains shown) VH: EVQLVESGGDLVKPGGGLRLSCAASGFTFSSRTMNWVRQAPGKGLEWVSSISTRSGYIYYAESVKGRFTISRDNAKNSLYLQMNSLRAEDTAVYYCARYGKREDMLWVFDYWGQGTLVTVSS VL: QSALTQPPSASGSPGQTVTISCDGPSTGVGDYNYVHWYQQHPGKAPKLMIYFTSKKPSGVPDRFSGSKSGNTASLTVSGLQAEDEADYFCQTYAAPLGPMFGGGTKLTVLG
Result: 0.106

Request: Let us now turn to 04H1207-G1m/04L1086-lam1 (antibody, human IgG1, lambda, V domains shown) VH: EVQLVESGGGLVKPGGSLRLSCAASGFTFSSKTMNWVRQAPGKGLEWVSSISTRSGYIYYAESVKGRFTISRDNAKNSLYLQMNSLRAEDTAVYYCARYGKREDMLWVFDYWGQGTLVTVSS VL: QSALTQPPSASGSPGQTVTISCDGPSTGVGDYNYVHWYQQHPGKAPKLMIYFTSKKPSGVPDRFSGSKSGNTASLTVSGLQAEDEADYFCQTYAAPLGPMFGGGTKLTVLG
Result: 0.137

Request: Let us now turn to 04H1208-G1m/04L1086-lam1 (antibody, human IgG1, lambda, V domains shown) VH: EVQLVESGGGLVKPGGSLRLSCAASGFTFSSKTMNWVRQAPGKGLEWVSSISTRSGYIYYARSVKGRFTISRDNAKNSLYLQMNSLRAEDTAVYYCARYGKREDMLWVFDYWGQGTLVTVSS VL: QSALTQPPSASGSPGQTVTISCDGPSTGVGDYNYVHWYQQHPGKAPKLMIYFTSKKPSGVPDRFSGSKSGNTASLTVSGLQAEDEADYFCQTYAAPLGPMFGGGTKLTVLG
Result: 0.108
